- System: rodent lifetime carcinogenesis bioassay, tumor incidence TD50
- test method notes: carcinogenic potency in animals, long-term in vivo studies, CPDB compilation (AID 1745844)
- condition label: mouse; strain B6C3F1; females; in feed; site: any site (literature study); lesion: several types; types named in the paper; dosed 79 weeks; study length 94 weeks
metric name: TD50 (mg/kg/day)
# unit: mg/kg/day | format: bare number

In: Any idea what TD50 was measured for "Nc1ccc2c(c1)C(=O)c1ccccc1C2=O" ?
Out: 1620

====

- Tested on: rodent lifetime carcinogenesis bioassay, tumor incidence TD50
- test method notes: carcinogenic potency in animals, long-term in vivo studies, CPDB compilation (AID 1745844)
- condition label: rat; strain Fischer 344; males; in drinking water; site: testis; lesion: interstitial-cell adenoma, bilateral + interstitial-cell adenoma; dosed 104 weeks; study length 104 weeks
metric name: TD50

In: Any idea what TD50 was measured for "Cc1ccc(S(=O)(=O)Oc2ccc(N=Nc3ccc(-c4ccc(N=Nc5c(O)ccc6cc(S(=O)(=O)O)cc(S(=O)(=O)O)c56)c(C)c4)cc3C)cc2)cc1" ?
Out: 3.39 mg/kg/day

====

- Test system: rodent lifetime carcinogenesis bioassay, tumor incidence TD50
- test method notes: carcinogenic potency in animals, long-term in vivo studies, CPDB compilation (AID 1745844)
- condition label: mouse; strain B6C3F1; males; by gavage; site: all sites; lesion: malignant lymphoma, histiocytic type; dosed 103 weeks; study length 104 weeks
metric name: TD50 (mg/kg/day)
# unit: mg/kg/day | format: bare number

In: Any idea what TD50 was measured for "CC1=CC(=O)CC(C)(C)C1" ?
Out: 244

====

- System: rodent lifetime carcinogenesis bioassay, tumor incidence TD50
- test method notes: carcinogenic potency in animals, long-term in vivo studies, CPDB compilation (AID 1745844)
- condition label: monkey; strain Rhesus [Macaca mulatta]; both sexes; in feed; site: any site (literature study); lesion: malignant tumor; dosed 1251 weeks; study length 1251 weeks
metric name: TD50 (mg/kg/day)
# unit: mg/kg/day | format: bare number

In: Any idea what TD50 was measured for "O=S(=O)(O)NC1CCCCC1" ?
Out: 3160

====

- System: rodent lifetime carcinogenesis bioassay, tumor incidence TD50
- test method notes: carcinogenic potency in animals, long-term in vivo studies, CPDB compilation (AID 1745844)
- condition label: mouse; strain B6C3F1; females; inhaled; site: subcutaneous tissue; lesion: sarcoma; dosed 83 weeks; study length 104 weeks
metric name: TD50 (mg/kg/day)
# unit: mg/kg/day | format: bare number

In: Any idea what TD50 was measured for "C=CC=C" ?
Out: 131

====

- Test system: rodent lifetime carcinogenesis bioassay, tumor incidence TD50
- test method notes: carcinogenic potency in animals, long-term in vivo studies, CPDB compilation (AID 1745844)
- condition label: mouse; strain C57BL/6NCrj; females; in feed; site: cecum; lesion: adenocarcinoma; dosed 85 weeks; study length 85 weeks
metric name: TD50

In: Any idea what TD50 was measured for "Cc1cc2ncccc2c2nc(N)n(C)c12" ?
Out: 50 mg/kg/day

====

- System: rodent lifetime carcinogenesis bioassay, tumor incidence TD50
- test method notes: carcinogenic potency in animals, long-term in vivo studies, CPDB compilation (AID 1745844)
- condition label: mouse; strain Charles River CD1; females; in drinking water; site: lung; lesion: alveolar/bronchiolar carcinoma; dosed 52 weeks; study length 52 weeks
metric name: TD50 (mg/kg/day)
# unit: mg/kg/day | format: bare number

In: Any idea what TD50 was measured for "CN(C)N" ?
Out: 81.5

====

- Test system: rodent lifetime carcinogenesis bioassay, tumor incidence TD50
- test method notes: carcinogenic potency in animals, long-term in vivo studies, CPDB compilation (AID 1745844)
- condition label: rat; strain Fischer 344; males; by gavage; site: pancreas; lesion: acinar-cell adenoma; dosed 104 weeks; study length 104 weeks
The source made the active and inactive calls. No rule for the calls is given here.
metric name: TD50

In: Any idea what TD50 was measured for "CCCCCCCC(=O)OCC(COC(=O)CCCCCCC)OC(=O)CCCCCCC" ?
Out: 5490 mg/kg/day (inactive)

====

- Tested on: rodent lifetime carcinogenesis bioassay, tumor incidence TD50
- test method notes: carcinogenic potency in animals, long-term in vivo studies, CPDB compilation (AID 1745844)
- condition label: rat; strain Fischer 344; females; in drinking water; site: nasal cavity; lesion: several types; types named in the paper; dosed 30 weeks; study length 75 weeks
metric name: TD50

In: Requested read-out TD50, target or system rodent lifetime carcinogenesis bioassay, tumor incidence TD50, entry CC(O)CN(C)N=O (stereo unspecified)
Out: 0.0486 mg/kg/day

====

- Test system: rodent lifetime carcinogenesis bioassay, tumor incidence TD50
- test method notes: carcinogenic potency in animals, long-term in vivo studies, CPDB compilation (AID 1745844)
- condition label: rat; strain Colworth (Wistar derived); females; in drinking water; site: liver; lesion: mesenchymal hemangio-sarcoma, -pericytoma, or -endothelioma, malignant; dosed 176 weeks; study length 176 weeks
metric name: TD50

In: Any idea what TD50 was measured for "CN(C)N=O" ?
Out: 0.914 mg/kg/day

====

- Tested on: rodent lifetime carcinogenesis bioassay, tumor incidence TD50
- test method notes: carcinogenic potency in animals, long-term in vivo studies, CPDB compilation (AID 1745844)
- condition label: rat; strain Charles River CD (Sprague-Dawley); males; inhaled; site: liver; lesion: hepatocellular adenoma; dosed 104 weeks; study length 104 weeks
Active and inactive are the calls of the source. No rule for the calls is given here.
metric name: TD50

In: Any idea what TD50 was measured for "CN(C)C=O" ?
Out: 2640 mg/kg/day (inactive)

====

- System: rodent lifetime carcinogenesis bioassay, tumor incidence TD50
- test method notes: carcinogenic potency in animals, long-term in vivo studies, CPDB compilation (AID 1745844)
- condition label: rat; strain Sprague-Dawley; females; by gavage; site: all sites; lesion: lymphoma and leukemia, combined; dosed 104 weeks; study length 141 weeks
metric name: TD50 (mg/kg/day)
# unit: mg/kg/day | format: bare number

In: Any idea what TD50 was measured for "Cc1cccc(C)c1" ?
Out: 5170

====

- Tested on: rodent lifetime carcinogenesis bioassay, tumor incidence TD50
- test method notes: carcinogenic potency in animals, long-term in vivo studies, CPDB compilation (AID 1745844)
- condition label: mouse; strain CBA/Cb/Se; females; by gavage; site: liver; lesion: hepatoma; dosed 36 weeks; study length 84 weeks
Active and inactive are the calls of the source. How the calls were made is not given here.
metric name: TD50

In: Any idea what TD50 was measured for "NNC(=O)c1ccncc1" ?
Out: 187 mg/kg/day (inactive)

====

- Tested on: rodent lifetime carcinogenesis bioassay, tumor incidence TD50
- test method notes: carcinogenic potency in animals, long-term in vivo studies, CPDB compilation (AID 1745844)
- condition label: rat; strain Fischer 344; females; by gavage; site: adrenal gland; lesion: cortical adenoma; dosed 106 weeks; study length 108 weeks
metric name: TD50

In: Any idea what TD50 was measured for "Cc1ccc(N=C=O)cc1N=C=O" ?
Out: 174 mg/kg/day

====

- Tested on: rodent lifetime carcinogenesis bioassay, tumor incidence TD50
- test method notes: carcinogenic potency in animals, long-term in vivo studies, CPDB compilation (AID 1745844)
- condition label: mouse; strain B6C3F1; males; inhaled; site: mesenteric lymph node + multiple organs + spleen + subcutaneous tissue; lesion: malignant lymphoma, NOS; dosed 103 weeks; study length 104 weeks
metric name: TD50 (mg/kg/day)
# unit: mg/kg/day | format: bare number

In: Any idea what TD50 was measured for "ClC(Cl)=C(Cl)Cl" ?
Out: 681

====

- System: rodent lifetime carcinogenesis bioassay, tumor incidence TD50
- test method notes: carcinogenic potency in animals, long-term in vivo studies, CPDB compilation (AID 1745844)
- condition label: rat; strain Charles River CD (Sprague-Dawley); males; inhaled; site: nasal cavity, olfactory epithelium; lesion: adenocarcinoma; dosed 104 weeks; study length 104 weeks
metric name: TD50

In: Requested read-out TD50, target or system rodent lifetime carcinogenesis bioassay, tumor incidence TD50, entry "C=CN1CCCC1=O"
Out: 32.9 mg/kg/day

====

Provide the recorded TD50 for the entries that follow.
- System: rodent lifetime carcinogenesis bioassay, tumor incidence TD50
- test method notes: carcinogenic potency in animals, long-term in vivo studies, CPDB compilation (AID 1745844)
- condition label: mouse; strain B6C3F1; females; by gavage; site: liver + lung; lesion: hepatocellular adenoma + hepatocellular carcinoma + alveolar/bronchiolar adenoma + alveolar/bronchiolar carcinoma; dosed 103 weeks; study length 104 weeks
# unit: mg/kg/day | format: bare number

In: Requested read-out TD50, target or system rodent lifetime carcinogenesis bioassay, tumor incidence TD50, entry "O=c1ccc2ccccc2o1"
Out: 85.5

In: What do you get for "S=[Se]" ?
Out: 46.8

====

- Test system: rodent lifetime carcinogenesis bioassay, tumor incidence TD50
- test method notes: carcinogenic potency in animals, long-term in vivo studies, CPDB compilation (AID 1745844)
- condition label: rat; strain Fischer 344; females; in drinking water; site: liver; lesion: hemangiosarcoma; dosed 50 weeks; study length 73 weeks
metric name: TD50

In: Any idea what TD50 was measured for "O=NN1CCOCC1" ?
Out: 0.348 mg/kg/day
